FYI, the data here is from patent US9567345B2.

- experimentalTarget: CDK9/Cyclin T1 (Homo sapiens, UniProt P50750)
- Sequence (P50750 whole entry): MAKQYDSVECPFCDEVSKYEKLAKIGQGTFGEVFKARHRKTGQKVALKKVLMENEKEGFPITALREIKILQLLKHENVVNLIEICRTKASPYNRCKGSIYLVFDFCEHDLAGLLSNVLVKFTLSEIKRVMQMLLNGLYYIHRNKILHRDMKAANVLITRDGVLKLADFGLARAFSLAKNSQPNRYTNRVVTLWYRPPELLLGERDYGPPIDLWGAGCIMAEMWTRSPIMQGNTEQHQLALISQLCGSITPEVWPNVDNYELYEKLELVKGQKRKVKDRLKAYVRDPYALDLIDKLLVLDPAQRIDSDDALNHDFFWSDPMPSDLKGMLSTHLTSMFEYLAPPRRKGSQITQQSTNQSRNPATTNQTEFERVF
- Sequence (O60563 whole entry partner): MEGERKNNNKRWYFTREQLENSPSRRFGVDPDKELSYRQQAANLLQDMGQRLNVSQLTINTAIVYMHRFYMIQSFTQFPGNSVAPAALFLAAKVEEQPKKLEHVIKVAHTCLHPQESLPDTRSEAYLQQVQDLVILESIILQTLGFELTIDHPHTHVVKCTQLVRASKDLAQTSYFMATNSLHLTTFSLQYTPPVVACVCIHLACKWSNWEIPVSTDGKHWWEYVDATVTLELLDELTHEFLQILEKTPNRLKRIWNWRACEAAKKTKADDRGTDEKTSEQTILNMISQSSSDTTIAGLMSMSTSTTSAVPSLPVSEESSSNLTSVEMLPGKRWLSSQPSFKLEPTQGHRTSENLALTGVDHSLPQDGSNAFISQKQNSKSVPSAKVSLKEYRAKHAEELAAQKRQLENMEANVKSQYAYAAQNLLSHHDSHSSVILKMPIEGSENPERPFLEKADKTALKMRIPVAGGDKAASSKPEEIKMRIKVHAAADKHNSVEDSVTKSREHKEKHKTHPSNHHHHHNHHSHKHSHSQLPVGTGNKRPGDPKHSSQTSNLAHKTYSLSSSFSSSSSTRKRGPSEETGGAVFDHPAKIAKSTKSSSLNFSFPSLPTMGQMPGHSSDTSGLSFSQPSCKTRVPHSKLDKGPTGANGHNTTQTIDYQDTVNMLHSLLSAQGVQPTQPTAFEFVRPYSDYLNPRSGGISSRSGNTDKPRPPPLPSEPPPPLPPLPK
- assayRemarks: CDK9 Enzymatic Activity Assay (Lance Kinase Activity Assay, FRET)
- Format: biochemical
- runConditions: Table 5B, class symbols per IC50 [nM] ranges of b581; read-out: CDK9: Selectivity of CDK7 inhibition over CDK9 inhibition
measurementName: IC50

CC(C)c1cnn2c(NCc3ccccc3-n3cccn3)nc(CN(C)CCCN3CCCCC3)nc12 | > 2500 nM
CC(C)c1cnn2c(NCc3ccccc3-n3cccn3)nc(CNCCCN3CCOCC3)nc12 | > 2500 nM
CSc1ccccc1CNc1nc(O[C@@H]2CCCNC2)nc2c(C(C)C)cnn12 | 50 to 500 nM
CC(C)c1cnn2c(NCc3ccccc3N3CCCC3=O)nc(N3CCC4(CCCN4)CC3)nc12 | > 2500 nM
CC(C)c1cnn2c(NCc3ccccc3S(=O)(=O)N3CCN(C)CC3)nc(O[C@@H]3CCCNC3)nc12 | > 2500 nM
CC(C)c1cnn2c(NCc3cccc(F)c3-n3cccn3)nc(O[C@@H]3CCCNC3)nc12 | 50 to 500 nM
CC(C)c1cnn2c(NCc3ccccc3C(N)=O)nc(O[C@@H]3CCCNC3)nc12 | 500 to 2500 nM
